The origin of these recorded values is patent US20170355733A1.

- Target: aTNF-Fab (Fab fragment of anti-human TNFα monoclonal IgG, generic name Infliximab, product name Remicade)
- Measurement notes: affinity chromatography on aTNF-Fab-immobilized column, linear pH gradient 5.5 to 2.5, pH at elution peak top
Recorded metric: Dissociation pH (pH)

Binder: GB1#-T17A.1d (designed binder) GPLGSTTYKLILNGKTLTGYTAAIAADAATAEIVLKQFANDNGIDGEWTYDDATKTFTVTE
Unit of measure: pH
Dissociation pH: 2.85
//
Binder: GB1#-T17V.1d (designed binder) GPLGSTTYKLILNGKTLTGYTVAIAADAATAEIVLKQFANDNGIDGEWTYDDATKTFTVTE
Unit of measure: pH
Dissociation pH: 3
//
Binder: GB1#-D36V.1d (designed binder) GPLGSTTYKLILNGKTLTGYTTAIAADAATAEIVLKQFANVNGIDGEWTYDDATKTFTVTE
Unit of measure: pH
Dissociation pH: 3.4
//
Binder: GB1#-Cont.1d (designed binder) GPLGSTTYKLILNGKTLTGYTTAIAADAATAEIVLKQFANDNGIDGEWTYDDATKTFTVTE
Unit of measure: pH
Dissociation pH: 2.6
